assay: gradient 5% acetonitrile 3 min, to 50% in 2 min, to 85% in 15 min, held 3 min, 100 µL/min; conditions: column: Zorbax Extend-C18 2.1 x 50 mm; eluents: water / acetonitrile, 0.1% formic acid
Measurement label: RP-LC retention time (s)

| Molecule | RP-LC retention time [s] |
| --- | --- |
| Cc1cc(C)cc(C(=O)Nc2cc(-c3cccnc3)no2)c1 | 838 |
| Cc1cc(C)n(-c2ccnc(N3CCC(C(=O)N4CCc5ccccc5C4)CC3)n2)n1 | 935 |
| COc1ccc(CCNc2ncnc3c2cnn3-c2ccccc2)cc1OC | 783 |
| CCc1ccc(NC(=O)Cn2nc3c(N4CCSCC4)nccn3c2=O)cc1 | 888 |
| O=C(Cc1scnc1-c1cccs1)N1CCN(c2ccccn2)CC1 | 596 |
| Cc1noc(-c2ccnc(-n3ncc(C(=O)NCCc4c[nH]c5ccccc45)c3C)c2)n1 | 903 |
| CC1Cc2ccccc2N1C(=O)c1ccc(=O)n(CCC(=O)N2CCN(c3ccccn3)CC2)n1 (centres undefined) | 629 |
| Cc1ccc(CNC(=O)C(C)n2c3ccccc3c3cnn(C)c(=O)c32)o1 (centres undefined) | 882 |
| CC1Cc2ccccc2N1C(=O)c1coc(NC(=O)c2ccco2)n1 (centres undefined) | 724 |
